# ASSAY METHOD TEXT: Oral bioavailability in Sprague-Dawley rat plasma by LC/MS analysis
# Format: ADME, organism-based
ENDPOINT NAME: bioavailability (%)

[a] Cc1nc(N)nc(N)c1OCCCOc1cc(Cl)c(Cl)cc1Cl
[b] CC1(C)N=C(N)N=C(N)N1OCCCOc1cc(Cl)c(Cl)cc1Cl.Cl
Between the two listed entries a and b , which has its bioavailability at the higher number? Answer by quoting the chosen item's label.
a
(a: 83%, b: 1%)

----------
# System: Plasmodium falciparum
# ASSAY METHOD TEXT: Antiplasmodial activity against chloroquine-resistant Plasmodium falciparum W2 by NBT assay
# Assay type: functional, organism-based
ENDPOINT NAME: pIC50
pIC50 here: minus log base 10 of the concentration, concentration in moles per litre.

The cases that follow already have their pIC50 on record.
- MOL SMILES: "Cc1cc(N2CCN(C)CC2)nc(NCCCCNc2ccnc3cc(Cl)ccc23)n1"
  ENDPOINT NAME: "pIC50"
  RESULT: 7.80
- MOL SMILES: "Cc1cc(N2CCCCC2)nc(NCCNc2ccnc3cc(Cl)ccc23)n1"
  ENDPOINT NAME: "pIC50"
  RESULT: 7.80
- MOL SMILES: "Cc1cc(N2CCCCC2)nc(NCCCCNc2ccnc3cc(Cl)ccc23)n1"
  ENDPOINT NAME: "pIC50"
  RESULT: 7.80
- MOL SMILES: "Clc1ccc2c(NCCCNc3nccc(N4CCOCC4)n3)ccnc2c1"
  ENDPOINT NAME: "pIC50"
  RESULT: 7.80
- MOL SMILES: "Cc1cc(N2CCOCC2)nc(NCCCCCCNc2ccnc3cc(Cl)ccc23)n1"
  ENDPOINT NAME: "pIC50"
  RESULT: 7.80

--- query ---
Would you kindly share the measured pIC50 for "CCN1CCN(c2cc(C)nc(NCCCCNc3ccnc4cc(Cl)ccc34)n2)CC1" ?
7.80
